- Test Details: gradient 5% acetonitrile 3 min, to 50% in 2 min, to 85% in 15 min, held 3 min, 100 µL/min
- Condition Context: column: Zorbax Extend-C18 2.1 x 50 mm; eluents: water / acetonitrile, 0.1% formic acid
Quantity Name: RP-LC retention time (s)

Previously resolved entries follow.
Compound | Endpoint Value
Cc1ccccc1-c1nc2cnccn2c1NCCC(=O)NCc1cccs1 | 649
CCS(=O)(=O)N1CCC([C@@H](C)n2c(C)c(C(=O)NCc3c(OC)cc(C)[nH]c3=O)c3ccccc32)CC1 | 777
COCCNc1c(-c2ccc(F)cc2)nc2sc(C(=O)NCc3cccnc3)c(C)n12 | 631
CC(C)NC(=O)c1ccc(-c2nc3cc(NS(=O)(=O)c4ccc(F)c(F)c4)ccc3n2C)cc1 | 721
O=C(NCc1ccc2c(c1)OCO2)C1CCN(c2cn[nH]c(=O)c2)C1 (stereo unspecified) | 627
Cc1ccc(-n2ccc(=O)c(-c3nc(-c4ccccc4C)no3)n2)cc1 | 987

(A) CCCNC(=O)C1=Cc2cc(Cl)cc(OC)c2OC=C1
(B) O=C(Cn1ccnc1-c1ccnc(N2CCSCC2)c1)NCc1ccc(F)cc1
Looking at A and B , which one comes out lower in RP-LC retention time terms? Respond using the label that marks the chosen record.
B
(B: 653 s, A: 977 s)

(a) Cc1ccccc1Nc1c(-c2cccc(N(C)C)c2)nc2ccc(Br)cn12
(b) O=C(c1cccnc1)N1CCN(c2nnnn2-c2ccccc2)CC1
Exercise: compare a and b ; which one has the greater RP-LC retention time? Respond using the label that marks the chosen record.
a
(a: 847 s, b: 588 s)

* * *

- Test Details: gradient 5% acetonitrile 3 min, to 50% in 2 min, to 85% in 15 min, held 3 min, 100 µL/min
- Condition Context: column: Zorbax Extend-C18 2.1 x 50 mm; eluents: water / acetonitrile, 0.1% formic acid
Quantity Name: RP-LC retention time (s)

Sample Smiles | RP-LC retention time / s
CCOc1ccccc1N1CCN(S(=O)(=O)c2nn(C)cc2C(=O)NCC2CC2)CC1 | 973
Cc1ccc(N2CCN(C(=O)c3cn(-c4cc(N5CCCCC5)ncn4)cn3)CC2)cc1 | 994
Cc1ccccc1-c1nnc(CSc2nnc(NC(=O)Cc3ccccc3Cl)s2)o1 | 977

* * *

- Test Details: gradient 5% acetonitrile 3 min, to 50% in 2 min, to 85% in 15 min, held 3 min, 100 µL/min
- Condition Context: column: Zorbax Extend-C18 2.1 x 50 mm; eluents: water / acetonitrile, 0.1% formic acid
Quantity Name: RP-LC retention time (s)

Compound | Value Unit | RP-LC retention time
C[C@H]1CN(S(=O)(=O)c2ccccc2F)C[C@@H]1c1nc(-c2ccncc2)no1 | s | 884
O=C(COc1ccc(Br)cc1)NCc1ccc2c(c1)OCCCO2 | s | 933
O=c1ccc(S(=O)(=O)N2CCOCC2)cn1Cc1cccc(F)c1 | s | 755
COC(=O)c1cc(S(=O)(=O)N2CCCC2C(=O)Nc2ccc(Br)cc2F)cn1C (centres undefined) | s | 999

* * *

- Test Details: gradient 5% acetonitrile 3 min, to 50% in 2 min, to 85% in 15 min, held 3 min, 100 µL/min
- Condition Context: column: Zorbax Extend-C18 2.1 x 50 mm; eluents: water / acetonitrile, 0.1% formic acid
Quantity Name: RP-LC retention time (s)

Compound | Value Unit | RP-LC retention time
COc1cccc(N2CCN(c3ccnc(SCC(=O)NCc4ccccc4Cl)n3)CC2)c1 | s | 788

(P) Cc1ccc(S(=O)(=O)N2CCN(c3cc(C)nc(NC4CCCCC4)n3)CC2)cc1
(Q) OC1(c2ccccc2)CN(c2ccccc2)C2=[N+]1CCS2 (configuration not stated)
Looking at P and Q , which one comes out lower in RP-LC retention time terms? Respond using the label that marks the chosen record.
Q

Where do these numbers come from? They come from the METLIN SMRT retention time set (Domingo-Almenara et al. 2019).
